- testProtocol: antimalarial activity against Dd2 strain (AID 2302);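 also: 0% = DMSO untreated growth and 100% = chloroquine plus artemisinin killed control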
- testParameters: P. falciparum Dd2 in RBCs, LDH growth readout, 72 h; at 2 µM; stronger effect = higher value
Calls of active or inactive are those of the source.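 The calls were made as follows: active = growth inhibition above 50% at the single 2 µM test dose, taken to imply half-maximal potency below 2 µM; inactive = the rest.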
Measured growth inhibition, listed per entry.

COc1ccccc1C1CCN(C2CCC(NC(=O)/C=C/c3cc(C(F)(F)F)cc(C(F)(F)F)c3)CC2)CC1 (centres undefined) ... 21% (inactive)
CC(=O)c1cccc(NC(=O)NC2CCN(CCCCCNC(=O)/C=C/c3ccc(Cl)c(Cl)c3)CC2)c1 ... 1% (inactive)
CC(C)[C@H](NC(=O)c1ccc(O)c(-c2cccc(C(F)(F)F)c2)c1)C(=O)NCCN1CCCCC1 ... 29% (inactive)

Recorded growth inhibition (compound COc1cc(C=CC(=O)N2CCN(Cc3cccc(C)c3)CC2)ccc1OCc1c(C)noc1C ): 95% (active)

Recorded growth inhibition (compound Cc1cccc2[nH]c(-c3ccc(-c4ccc(CNCCCN5CCCC5=O)cc4)s3)nc12 ): 43% (inactive)

Recorded growth inhibition (compound CN1CC[C@@H](Oc2cc(Nc3nc(-c4ccc(C#N)cc4)cs3)ccc2Cl)C1 ): 24% (inactive)

Recorded growth inhibition (compound Cc1noc(-c2ccccc2)c1NC(=O)NC1CCN(CCCCCNC(=O)/C=C/c2ccc(Cl)c(Cl)c2)CC1 ): -3% (inactive)

Recorded growth inhibition (compound O=C1C2=C(Nc3ccccc3SC2c2cccs2)c2ccccc21 (centres undefined) ): 93% (active)

Recorded growth inhibition (compound NC(=O)c1cccc(CN2Cc3ccccc3OC3(CCN(Cc4c[nH]c5cnccc45)CC3)C2)c1 ): 2% (inactive)

----------
- testProtocol: inhibition of 3D7 malaria parasite growth – strain 3D7 (AID 2306);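 also: 0% = DMSO wells and 100% = chloroquine plus artemisinin control wells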
- testParameters: P. falciparum 3D7 erythrocytic growth, LDH absorbance, 72 h; at 2 µM; stronger effect = higher value
Calls of active or inactive are those of the source. No rule for the calls is given here.
Measured growth inhibition, listed per entry.

COc1ccc(Nc2nccc(N3CCC(NC(=O)c4cccc(NC(C)=O)c4)C3)n2)cc1 (stereo not given) ... 92% (active)

Recorded growth inhibition (molecule COc1ccc(CNC(=O)c2cnc3c(O)cccc3c2Nc2cccc(NC(=O)c3ccc(-c4ccccc4)cc3)c2)cc1 ): 90% (active)

Recorded growth inhibition (molecule Cc1cc(Nc2ccnc(-c3ccc(Cl)cc3)n2)ccn1 ): 94% (active)

Recorded growth inhibition (molecule CCn1c(-c2nonc2N)nc2c(Cl)ncc(O[C@H](CCN)c3ccccc3F)c21 ): 96% (active)

Recorded growth inhibition (molecule Cc1ccc(C)c2sc(N(CCCn3ccnc3)C(=O)C=Cc3cccs3)nc12 ): 101% (active)

----------
- testProtocol: antimalarial activity against Dd2 strain (AID 2302);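 also: 0% = DMSO untreated growth and 100% = chloroquine plus artemisinin killed control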
- testParameters: P. falciparum Dd2 in RBCs, LDH growth readout, 72 h; at 2 µM
Active and inactive are the calls of the source.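 How the source made its calls: active means growth inhibition above 50% at the single 2 µM test dose, taken to imply half-maximal potency below 2 µM; inactive means the rest.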
The reply should be one of these categories: yes (1) for active, no (0) for inactive

Cc1cccc(Nc2nccc(NCC(O)c3ccc(C(F)(F)F)cc3)n2)c1 (centres undefined) ... yes (1)
CCN(CC)CCN(Cc1ccc(-c2ccc(Cl)s2)cc1)C(=O)Cn1c(CCc2cccc(F)c2F)nc(=O)c2ccccc21 ... no (0)
O=C(NCC1CCC(C(=O)NCCc2ccc(Cl)c(Cl)c2)CC1)c1ccc(O)c(-c2ccc(Cl)c(Cl)c2)c1 (centres undefined) ... no (0)
CCCc1cc(Cc2cnc(N)nc2N)cc(OCCCCCC(=O)O)c1OC ... no (0)
CN(C)CC(=O)NCC(NCCCNc1cc(=O)c2ccccc2[nH]1)c1cc(Br)cc(Br)c1 (centres undefined) ... no (0)
COc1ccc(CNC2CCN(C)CC2)cc1-c1ccc(S(=O)(=O)NCc2cccnc2)s1 ... no (0)
COc1cc(-c2[nH]c(-c3ccc(OCCN(C)C)cc3)cc2-c2ccncc2)ccc1Cl ... no (0)
CC(=O)Nc1ccc(OCCN(Cc2ccccc2OC(F)(F)F)c2ccc(C(F)(F)F)c(C#N)c2)c(Cl)c1 ... yes (1)

Q) Assay outcome for Cn1nc(-c2ccc(CNC3CCc4ccccc43)cc2)c2cnc(NCCCN3CCCC3)nc21 (centres undefined) : what was it?
A) no (0)

Q) Assay outcome for COc1cc2nc(N3CCN(c4nc(N)c5cc(OC)c(OC)cc5n4)CC3)nc(N)c2cc1OC : what was it?
A) yes (1)

Q) Assay outcome for CN(CCO)Cc1ccc(-c2ccc(NS(=O)(=O)c3cccc4cccnc34)cc2)cc1 : what was it?
A) yes (1)

Q) Assay outcome for O=C(CCCCCNC(=O)c1ccc(O)c(-c2ccc(Cl)c(Cl)c2)c1)NCCN1CCCC1 : what was it?
A) no (0)

Q) Assay outcome for CN1CCN(c2ccnc3ccc(NC(=O)Nc4ccc5c(c4)CCCC5=O)cc23)CC1 : what was it?
A) yes (1)

Q) Assay outcome for FC(F)(F)c1ccc2nc(-c3ccc(-c4cccc(CNCCc5ccncc5)c4)s3)[nH]c2c1 : what was it?
A) yes (1)

Q) Assay outcome for NC(Cc1ccc(Cl)cc1)=NCCN1CCCCCC1 : what was it?
A) yes (1)

Q) Assay outcome for O=C(Nc1cccc2ccccc12)N1CCc2cc3nccc(N4CCN5CCC[C@H]5C4)c3cc21 : what was it?
A) yes (1)

Q) Assay outcome for O=C(C=Cc1ccc(-c2ccccc2)cc1)N1CCC(CCN2CCC(c3c[nH]c4ccccc34)CC2)CC1 : what was it?
A) no (0)

Q) Assay outcome for COc1cc(NC(=O)c2sc(-c3ccc(Cl)cc3)cc2NC(=O)c2ccncc2)ccc1OCCN1CCCC1 : what was it?
A) yes (1)

Q) Assay outcome for CCCc1cc(NC2CCN(C)CC2)nc(Nc2ccc(F)cc2)n1 : what was it?
A) no (0)

Data credit: PubChem BioAssay
